Source: ChEMBL document CHEMBL4177521

# tested.on: N-acylethanolamine-hydrolyzing acid amidase (Homo sapiens, UniProt Q02083)
# Sequence (Q02083 whole entry): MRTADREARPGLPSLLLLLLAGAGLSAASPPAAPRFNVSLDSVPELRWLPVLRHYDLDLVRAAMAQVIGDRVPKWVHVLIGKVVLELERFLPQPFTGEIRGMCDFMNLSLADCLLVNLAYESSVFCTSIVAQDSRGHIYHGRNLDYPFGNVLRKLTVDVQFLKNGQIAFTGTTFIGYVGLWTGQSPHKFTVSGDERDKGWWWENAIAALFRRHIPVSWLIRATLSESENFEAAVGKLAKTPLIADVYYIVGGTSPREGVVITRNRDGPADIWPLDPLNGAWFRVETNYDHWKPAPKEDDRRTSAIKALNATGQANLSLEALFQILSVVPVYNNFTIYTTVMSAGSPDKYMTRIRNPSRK
# assay: Time dependent inhibition of recombinant human NAAA expressed in HEK293 cells by liquid scintillation counting method
# Assay type: cell-based
pIC50: −log10 of the molar value.
measured.endpoint: pIC50

Prompt: Any idea what pIC50 was measured for CC(=O)Oc1cccc2c1C(=O)c1c(OC(C)=O)cc(C(=O)O)cc1C2=O ?
Completion: 5.14 to 6.15
